PROTOCOL_TEXT: Human HepG2 cell viability assay in 384 well format
Assay type: toxicity, cell-based
Parameters: dose 125 nL, time 70.5 hour; concentration not given beside the values
PARTICULARS: HepG2 cells, read-out: Inhibition
Reported cytotoxicity at 70.5 h values for a set of compounds
Only the number, expressed in %, is required.

Worked cases, answers included:
CC(=O)Nn1c(C)cc(CN2CCC(c3ccncc3)CC2)c1C = -2.26
Cn1nc(C(=O)NCc2ccc(Cl)cc2)c2c1CCS(=O)(=O)C2 = 2.61
CCC(NCc1ccccc1)c1ccccc1OCC(=O)NC (stereo not given) = -6.53
CC(C)Nc1ncccc1C(=O)NC1CC(=O)N(CC(F)(F)F)C1 (stereo not given) = -2.71
CN(Cc1ncc[nH]1)c1nc(-c2ccccn2)nc2c1CCNCC2 = -11.9
CC(C)COC(C)C(=O)NCc1ccccc1Cn1ccnc1 (stereo not given) = -7
Cc1nc(C)n(C2CCCN(C(=O)c3cn4c(C)cccc4n3)C2)n1 (stereo not given) = 19.8
CC(C)(C)C(=O)N1CCCC1c1nc(O)cc(-c2ccccn2)n1 (stereo not given) = -8.73
CCOc1ccc(CN2CCN(CCOC)[C@@H]3CS(=O)(=O)C[C@@H]32)cc1 = 5.04
CC(C)c1cc(C(=O)N2Cc3ccccc3CC2C(=O)O)nn1C (stereo not given) = -2.03

For this compound ( O=C(O)COc1ccc(CN2CCCC(CCc3ccccc3)C2)cc1 (stereo not given) ), measured cytotoxicity at 70.5 h is 20.1

Per the records, this compound ( Cc1occc1C(=O)N1CCCN(Cc2nccn2C)CC1 ) has cytotoxicity at 70.5 h equal to -8.79

Entry Cc1ccc(N2CCCC(NCc3ccc(-n4ccnc4)cc3)C2)nn1 (stereo not given) ; cytotoxicity at 70.5 h = 17.4

Looking up CCOC(=O)[C@@H]1[C@@H](O)C(=O)N(C)C12CCN(C(=O)OC)CC2 , I found its cytotoxicity at 70.5 h recorded as -10.2

What the record says about CN(Cc1cn2c(n1)CN(CC1CC1)CC2)Cc1ccco1 : cytotoxicity at 70.5 h is -11.8

---

Listed below: cytotoxicity at 70.5 h values for each entry.
PROTOCOL_TEXT: Human HepG2 cell viability assay in 384 well format
Assay type: toxicity, cell-based
Set-up: dose 125 nL, time 70.5 hour; concentration not given beside the values
PARTICULARS: HepG2 cells, read-out: Inhibition
Entry rule: numbers only, all in %.

Field: example entries. Status: answers known.
CCc1ccccc1OC1CN(C(=O)CN(C)Cc2cccnc2)C1 = 14
CN(c1cccnn1)C1CCN(C(=O)c2n[nH]c3c2CCC3)CC1 = -4.09
COc1cccc(C(=O)NCc2ccccc2S(=O)(=O)N(C)C)c1 = -4.93
C=C(C)CN1CCC(NC(=O)c2scnc2C)CC1 = -5.87
COc1ccc(CCNC(=O)NC2CCCC2)cc1OC = -12.5

According to the records, this molecule CC1(C)CN(C(=O)c2ccccc2-n2cncn2)CC1(C)O (stereo unspecified) displays cytotoxicity at 70.5 h of 18.2

---

PROTOCOL_TEXT: Human HepG2 cell viability assay in 384 well format
Assay type: toxicity, cell-based
Design: dose 125 nL, time 70.5 hour; concentration not given beside the values
PARTICULARS: HepG2 cells, read-out: Inhibition
MEASUREMENT_LABEL: cytotoxicity at 70.5 h (%)
Enter your answer as a number in %; do not include the unit.

Cc1ccc(CNC(=O)CCN2CCN(c3ccccn3)CC2)n1C = 21.9

The measured cytotoxicity at 70.5 h associated with CC(c1nc(C2CC2)no1)N1CCN(CCOCC(F)(F)F)CC1 (configuration not stated) reads -8.3

Reported cytotoxicity at 70.5 h for Cc1cccnc1CN1CC[C@@](C)(O)[C@H](Oc2ccccc2)C1 was -7.26

---

PROTOCOL_TEXT: Human HepG2 cell viability assay in 384 well format
Type: toxicity, cell-based
Set-up: dose 125 nL, time 70.5 hour; concentration not given beside the values
PARTICULARS: HepG2 cells, read-out: Inhibition
MEASUREMENT_LABEL: cytotoxicity at 70.5 h (%)
Just the number in %, nothing appended.

Worked cases, cytotoxicity at 70.5 h given:
O=C([C@H]1C[C@H]2OCC[C@H]2N(Cc2ccoc2)C1)N1CCCCO1 = -6.32
Cc1nnc(CN2CCC(c3nc4cc(Cl)ccc4o3)CC2)n1C = -18.9
CN(C)C(=O)c1ccc(-c2cccc3c2CCNC3)o1 = -5.11

Per the records, this compound ( Cc1cc(NC(=O)CCCn2ccnc2C)nc(C(C)C)n1 ) has cytotoxicity at 70.5 h equal to 0.794

Consider C[C@H](NC(=O)C1CCCC1)c1nc2cc(-c3ccc(F)cc3)ncn2n1 . Its measured cytotoxicity at 70.5 h is 4.97

---

PROTOCOL_TEXT: Human HepG2 cell viability assay in 384 well format
Type: toxicity, cell-based
Design: dose 125 nL, time 70.5 hour; concentration not given beside the values
PARTICULARS: HepG2 cells, read-out: Inhibition
The following compounds are shown together with reported cytotoxicity at 70.5 h values.
State just the number; it will be interpreted in %.

NC(=O)C1(CCCc2ccccn2)CCCN(Cc2ccncc2)C1 (configuration not stated) = -2.02

Field: next compound
Noted for Cc1nsc(N2CCN(CC(=O)NCc3ccc(F)cc3)CC2)n1 : its cytotoxicity at 70.5 h reads -0.931

---

Catalogue of compounds with associated cytotoxicity at 70.5 h
PROTOCOL_TEXT: Human HepG2 cell viability assay in 384 well format
Assay type: toxicity, cell-based
Design: dose 125 nL, time 70.5 hour; concentration not given beside the values
PARTICULARS: HepG2 cells, read-out: Inhibition
Field: numeric (%). Do not append units.

Use these answered entries as a reference point.
O=C1CCCC2=C1C(c1ccc(F)cc1F)Nc1nonc1N2 (configuration not stated) = 12.1
CNC(=O)c1ccc(C(=O)N2CCCC(n3ccnc3)C2)cn1 (configuration not stated) = -15.9
COCc1cc(CN(C)C(=O)CCC(=O)Nc2cc(C)ccc2F)n[nH]1 = -6.52

# compound O=C(NCCO)C1(Cc2ccccc2-c2ccncc2)CCOCC1 ; its cytotoxicity at 70.5 h = -7.35

get_value(item= CN(Cc1ccccn1)C1COC2(CCN(Cc3nccs3)CC2)C1 (configuration not stated) , readout=cytotoxicity at 70.5 h) returns 15.3

---

PROTOCOL_TEXT: Human HepG2 cell viability assay in 384 well format
Format: toxicity, cell-based
Set-up: dose 125 nL, time 70.5 hour; concentration not given beside the values
PARTICULARS: HepG2 cells, read-out: Inhibition
MEASUREMENT_LABEL: cytotoxicity at 70.5 h (%)
Write the number in % without appending the unit.

Worked examples follow.
COc1ccc(C2CCCN2c2ccnc(C)c2Cl)c(OC)c1 (stereo unspecified) = 33.7
Cc1nc(N(C)CCN(C)C)c2cnn(C)c2n1 = 19.9
O=C(Cc1ccc(O)c(F)c1)N1CCN(CC2CC2)[C@@H]2CS(=O)(=O)C[C@@H]21 = -6.03

What the record says about CCn1nccc1CNC(=O)NC1CCCCC1 : cytotoxicity at 70.5 h is 6.27

Briefly, cytotoxicity at 70.5 h measured for c1ccc(Oc2ncccc2CNCc2ccccn2)cc1 : -4.5

The recorded cytotoxicity at 70.5 h for entry CCc1nccn1CCC(=O)N1CCCC1c1ccc(F)cc1 (stereo unspecified) equals -1.42

Briefly, cytotoxicity at 70.5 h measured for CCCS(=O)(=O)N1C[C@@H](OCc2ccncc2)[C@H]2OCCC[C@H]21 : -7.43

Record Nc1cccnc1N1CCN(c2ccccc2)CC1 . Reported cytotoxicity at 70.5 h: -0.724

---

PROTOCOL_TEXT: Human HepG2 cell viability assay in 384 well format
Assay type: toxicity, cell-based
Set-up: dose 125 nL, time 70.5 hour; concentration not given beside the values
PARTICULARS: HepG2 cells, read-out: Inhibition
Below: a set of entries, each annotated with reported cytotoxicity at 70.5 h.
Provide only the numeric value, understood in %.

Record excerpt, results attached:
CN1CCC(N(CCc2ccccc2)C(=O)c2ccoc2)CC1 = -7.47
CN1CCC(CNC(=O)CCSc2ccc3c(c2)OCCO3)C1 (centres undefined) = -2.01
CN(C)c1ccc(C(=O)Nc2cn[nH]c2)cc1 = -2.5

Lab note: next molecule to report on.
Reported cytotoxicity at 70.5 h ( NC(=O)CN1CCCN(C(=O)Cc2ccc(Br)cc2)CC1 ) = -13.7

---

Listing: cytotoxicity at 70.5 h of selected compounds
PROTOCOL_TEXT: Human HepG2 cell viability assay in 384 well format
Assay type: toxicity, cell-based
Design: dose 125 nL, time 70.5 hour; concentration not given beside the values
PARTICULARS: HepG2 cells, read-out: Inhibition
Give just the numeric value; % need not be written.

Query c1cnn(Cc2nnc3n2CCCN(CC2CCOCC2)C3)c1 yields cytotoxicity at 70.5 h of -2.91

// recorded cytotoxicity at 70.5 h for CSCCC(=O)N1CCC(c2nccn2Cc2cscn2)CC1 : -5.4

Looking up CC(C)Cc1cc(C(=O)NCC2CCCN(c3ccccn3)C2)on1 (configuration not stated) , I found its cytotoxicity at 70.5 h recorded as 9.21

Summary for this compound, O=S(=O)(c1cccnc1)N1CCC(OCCCc2ccccc2)C1 (configuration not stated) : cytotoxicity at 70.5 h is -0.248

For record CC(C)NC(=O)c1ccc2c(c1)nc1n2CCN(C(C)C)C1 the listed cytotoxicity at 70.5 h is -13.4

Value of measured cytotoxicity at 70.5 h for the entry Cc1noc(C)c1CNC(=O)c1cn(CCC2CCCCN2)nn1 (configuration not stated) : -0.767

cytotoxicity at 70.5 h for c1coc(CN2CCCn3c(nnc3Cn3cccc3)C2)c1 is -3.91

Where do these numbers come from? They come from ChEMBL document CHEMBL3507680.
